systemTested: T1, canine CD20 (canine, UniProt Q3C2E2 1-297)
T1 chain: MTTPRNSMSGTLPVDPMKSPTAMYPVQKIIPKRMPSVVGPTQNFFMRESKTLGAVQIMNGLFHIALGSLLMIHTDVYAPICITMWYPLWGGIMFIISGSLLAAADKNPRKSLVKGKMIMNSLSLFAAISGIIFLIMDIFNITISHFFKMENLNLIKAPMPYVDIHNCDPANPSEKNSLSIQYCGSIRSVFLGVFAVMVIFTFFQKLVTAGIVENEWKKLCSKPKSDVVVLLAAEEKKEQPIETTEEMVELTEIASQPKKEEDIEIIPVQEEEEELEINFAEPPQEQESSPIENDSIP
assay: cell-based or functional assay
propertyLabel: ADCC Maximum killing (%)

Lookup: Recorded ADCC Maximum killing (%) of PMX072 (antibody, V domains shown) VH: EVQLVESGGDLVKPGGSLRLSCVASGFTFSRYHMSWVRQAPGKGLQWVAFINTGRSSTNYADAVAGRFTISRDNAKNTLYLQMNSLRAEDTAVYYCSTLDYWGQGTLVTVSS VL: SYVLTQLPSKNVTLKQPAHITCGGDNIGSKSVHWYQQKLGQAPVLIIYYDSSRPTGIPERFSGANSGNTATLTISGALAEDEADYYCQVWDSSANVFGGGTHLTVL , please.
Found: 50%

Lookup: Recorded ADCC Maximum killing (%) of PMX067 (antibody, V domains shown) VH: EIQLVESGGDLVKPGGSLRLSCVASGFTFSRYHMSWVRQAPGKGLQWVAYINTGGSNTNYADAVKGRFTISRDNAKNTLYLQMNSLRAEDTAVYYCTTLDSWGQGTLVTVSS VL: SYVLTQLPFKNVTLKQPAHITCGGDNIGSKSVHWYQQKLGQAPVLIIYYDSRRPTGIPERFSGANSGNTATLTISGALAEDEADYYCQVWDSSVNVFGGGTHLTVL , please.
Found: 50%

Lookup: Recorded ADCC Maximum killing (%) of PMX081 (antibody, V domains shown) VH: EVQLVQSGGDLVKPGGSLRLSCVASGYTFTRYHMSWVRQAPGKGLQWVAFINSDGTGITYGDAVKGRFTISRDNAKNTLYLQMNSLRAEDTAIYYCTTFDSWGQGTLVTVSS VL: SYVLTQLPSKNVTLKQPAHITCGGDNIGSKSVHWYQQKLGQAPILIIYYDSRRPTGIPERFSGANSGNTATLTISGALAEDEADYYCQVWDSSGNVFGGGTHLTVL , please.
Found: 51%

Lookup: Recorded ADCC Maximum killing (%) of PMX078 (antibody, V domains shown) VH: EVQLVESGGDLVKPGGSLRLSCVASGLTFSRYHMSWIRQAPGKGLQWVAYISSGGSSTNYAGSVKGRFTVSRDNAKNTLYLQMNSLRAEDTAVYYCTSLDYWGQGTLVTVSS VL: SYVLTQLPSKNVTLKQPAHITCGGDNIGSKSVHWYQQKLGQAPVLIIYYDSRRPTGIPERFSGANSGNTATLTISGALAEDEADYYCQVWDSSDNVFGGGTHLTVL , please.
Found: 40%

Lookup: Recorded ADCC Maximum killing (%) of PMX070 (antibody, V domains shown) VH: EMQLVESGGDLVKPGGSLRLSCVASGFTFSRYHMSWVRQAPGKGLQWVAYINSGGSPTNYADAVKGRFTISRDNAKNTLYLQMNSLRAEDTAVYYCTTYDQWGQGTLVTVSS VL: SYVLTQLPSKSVTLKQPAHITCGGDNIGSKSVHWYQQKLGQAPVLIIYYDSSRPTGIPERFSGANSGNTATLTISGALAEDEADYYCQVWDTSANVFGGGTHLTVL , please.
Found: 51%
